Origin of measurements: paper PMC3108484

molecular target: Guinea pig κ kappa (Cavia porcellus, UniProt P41144)
Sequence (P41144 whole entry): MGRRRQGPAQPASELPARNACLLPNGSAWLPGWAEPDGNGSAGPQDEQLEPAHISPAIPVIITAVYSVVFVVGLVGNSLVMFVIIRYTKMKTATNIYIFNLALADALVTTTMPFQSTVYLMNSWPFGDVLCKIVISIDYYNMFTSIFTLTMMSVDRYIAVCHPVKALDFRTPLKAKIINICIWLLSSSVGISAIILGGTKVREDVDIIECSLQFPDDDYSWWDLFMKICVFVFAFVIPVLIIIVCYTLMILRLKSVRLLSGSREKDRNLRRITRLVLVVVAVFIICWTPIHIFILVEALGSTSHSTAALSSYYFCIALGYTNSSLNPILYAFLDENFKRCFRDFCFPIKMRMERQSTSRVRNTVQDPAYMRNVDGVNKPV
observable: Ki

Query block: Fill in: Ki of COC(=O)N1CCC(CN2CCC(CNC(=O)c3cccc4[nH]c(C(C)C)nc34)CC2)CC1 is ___
Result block: > 1000 nM

====

target: 5-HT4 receptor (Cavia porcellus); assay: Guinea pig colonic longitudinal muscle/myenteric plexus
Sequence (O70528 whole entry): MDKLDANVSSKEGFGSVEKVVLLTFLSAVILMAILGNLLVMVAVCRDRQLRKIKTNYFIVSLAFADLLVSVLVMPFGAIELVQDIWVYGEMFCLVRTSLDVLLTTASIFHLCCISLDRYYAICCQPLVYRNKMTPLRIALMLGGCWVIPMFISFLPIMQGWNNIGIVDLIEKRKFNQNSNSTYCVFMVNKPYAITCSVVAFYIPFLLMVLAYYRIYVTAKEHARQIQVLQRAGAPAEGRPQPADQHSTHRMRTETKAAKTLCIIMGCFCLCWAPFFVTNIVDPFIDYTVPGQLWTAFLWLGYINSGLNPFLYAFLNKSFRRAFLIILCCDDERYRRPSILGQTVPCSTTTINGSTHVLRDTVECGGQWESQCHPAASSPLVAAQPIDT
observable: pEC50
API: returns pEC50 as number; meaning -log10 of concentration in mol/L.

Query block: Look up pEC50 with 5-HT4 receptor (Cavia porcellus) for this molecule: CCOc1cc(N)c(Cl)cc1C(=O)NCC1CN(Cc2ccc(F)cc2)CCO1 (stereo not shown) [Mosapride, mosapride]
Result block: 5.40

====

Target: Human D4.4 (Homo sapiens)
Sequence (P21917 1-419): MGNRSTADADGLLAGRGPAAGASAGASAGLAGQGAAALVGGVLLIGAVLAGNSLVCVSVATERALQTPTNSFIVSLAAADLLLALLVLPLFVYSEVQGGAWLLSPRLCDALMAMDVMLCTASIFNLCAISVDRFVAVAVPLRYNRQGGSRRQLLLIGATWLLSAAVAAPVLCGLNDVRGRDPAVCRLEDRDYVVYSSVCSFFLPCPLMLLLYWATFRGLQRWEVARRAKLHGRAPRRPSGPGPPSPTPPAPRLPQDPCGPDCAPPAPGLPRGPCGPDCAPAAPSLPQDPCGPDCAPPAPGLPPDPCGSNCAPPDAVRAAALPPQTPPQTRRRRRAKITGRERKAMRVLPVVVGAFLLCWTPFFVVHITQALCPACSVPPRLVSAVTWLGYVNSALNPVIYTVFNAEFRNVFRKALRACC
pKi: −log10 of the molar value.
observable: pKi

Query block: Give the measured pKi of COC(=O)N1CCC(CN2CCC(CNC(=O)c3cccc4[nH]c(C(C)C)nc34)CC2)CC1 .
Result block: < 6.00

====

target: UniProt P07550
Sequence (P07550 whole entry): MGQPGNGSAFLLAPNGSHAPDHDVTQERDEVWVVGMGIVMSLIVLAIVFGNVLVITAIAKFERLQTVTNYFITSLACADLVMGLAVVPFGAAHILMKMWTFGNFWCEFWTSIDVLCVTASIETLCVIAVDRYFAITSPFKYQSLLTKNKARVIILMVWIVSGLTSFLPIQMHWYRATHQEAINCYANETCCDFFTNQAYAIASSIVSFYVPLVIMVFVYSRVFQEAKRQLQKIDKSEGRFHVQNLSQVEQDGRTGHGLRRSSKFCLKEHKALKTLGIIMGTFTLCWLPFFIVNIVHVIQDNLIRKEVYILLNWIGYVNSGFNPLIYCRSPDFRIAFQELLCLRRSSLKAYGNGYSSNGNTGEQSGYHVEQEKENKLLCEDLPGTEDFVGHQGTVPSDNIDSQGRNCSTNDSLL
observable: Ki

Query block: Request: Ki, test system UniProt P07550, entry COC(=O)N1CCC(CN2CCC(CNC(=O)c3cccc4[nH]c(C(C)C)nc34)CC2)CC1
Result block: > 1 µM

====

molecular target: UniProtKB P28564
Sequence (P28564 whole entry): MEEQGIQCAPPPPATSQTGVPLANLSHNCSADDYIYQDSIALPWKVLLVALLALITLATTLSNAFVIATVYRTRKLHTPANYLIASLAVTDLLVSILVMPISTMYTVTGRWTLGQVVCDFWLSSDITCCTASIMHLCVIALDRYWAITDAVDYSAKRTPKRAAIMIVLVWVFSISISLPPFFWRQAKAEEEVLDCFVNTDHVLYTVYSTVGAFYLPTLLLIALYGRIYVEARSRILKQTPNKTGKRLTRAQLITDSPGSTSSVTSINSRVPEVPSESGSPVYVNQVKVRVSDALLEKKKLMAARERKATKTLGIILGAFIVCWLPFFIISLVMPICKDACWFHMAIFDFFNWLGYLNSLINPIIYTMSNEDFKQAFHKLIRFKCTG
observable: Ki

Query block: Lab note: need Ki with UniProtKB P28564 for entry COC(=O)N1CCC(CN2CCC(CNC(=O)c3cccc4[nH]c(C(C)C)nc34)CC2)CC1 , please look it up.
Result block: > 1000 nM

====

biological target: UniProt:P30556
Sequence (P30556 whole entry): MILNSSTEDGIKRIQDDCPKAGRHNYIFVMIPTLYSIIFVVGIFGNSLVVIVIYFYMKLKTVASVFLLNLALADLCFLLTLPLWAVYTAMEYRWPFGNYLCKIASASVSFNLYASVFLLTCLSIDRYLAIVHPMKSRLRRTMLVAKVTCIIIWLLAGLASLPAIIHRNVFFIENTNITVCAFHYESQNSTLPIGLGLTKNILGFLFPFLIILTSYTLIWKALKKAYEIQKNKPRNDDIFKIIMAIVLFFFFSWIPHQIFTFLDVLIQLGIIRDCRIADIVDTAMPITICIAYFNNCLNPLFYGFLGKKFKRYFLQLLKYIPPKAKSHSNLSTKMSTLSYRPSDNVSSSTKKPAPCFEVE
observable: Ki

Query block: Please look up its Ki: COC(=O)N1CCC(CN2CCC(CNC(=O)c3cccc4[nH]c(C(C)C)nc34)CC2)CC1 [TD-8954]
Result block: > 1000 nM

====

Target: Human ETA (Homo sapiens)
Sequence (P25101 21-427): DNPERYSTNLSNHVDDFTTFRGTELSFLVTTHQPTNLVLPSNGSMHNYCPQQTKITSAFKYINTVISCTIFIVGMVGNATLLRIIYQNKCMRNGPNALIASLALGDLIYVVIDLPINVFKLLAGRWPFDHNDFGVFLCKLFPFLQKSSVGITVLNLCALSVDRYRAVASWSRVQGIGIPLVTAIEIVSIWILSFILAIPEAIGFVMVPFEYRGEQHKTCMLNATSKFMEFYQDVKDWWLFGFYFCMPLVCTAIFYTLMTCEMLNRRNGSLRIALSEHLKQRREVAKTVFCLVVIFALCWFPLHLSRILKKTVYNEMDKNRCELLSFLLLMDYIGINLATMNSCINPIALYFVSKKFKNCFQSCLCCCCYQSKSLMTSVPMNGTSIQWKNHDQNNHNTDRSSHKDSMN
pKi: −log10 of the molar value.
observable: pKi

Query block: Any idea what pKi was measured for COC(=O)N1CCC(CN2CCC(CNC(=O)c3cccc4[nH]c(C(C)C)nc34)CC2)CC1 ?
Result block: < 6.00
